// binding between Nrf2 and Keap1 (Homo sapiens (Human), UniProt Q14145) IC50 records

- molecule: "CC[C@@H]1CN(Cc2cc([C@H](CC(=O)O)c3ccc4c(nnn4C)c3C)cc3ccsc23)[C@@H](C)c2ncccc2O1"
  result: "10 to 30 nM"
- molecule: "CC[C@@H]1CN(Cc2cc(C(CC(=O)O)c3cc(C4CC4)c4c(nnn4C)c3C)cc3ccoc23)[C@@H](C)c2ncccc2O1 (stereo partly drawn)"
  result: "30 to 100 nM"

// below: IC50 requested for another molecule
Hello, I am looking for reported IC50 with binding between Nrf2 and Keap1 (Homo sapiens (Human), UniProt Q14145) for CC[C@@H]1CN(Cc2cc(C(CC(=O)O)c3cc(C4CC4)c4c(nnn4C)c3C)cc3c2OCC3)[C@@H](C)c2ncccc2O1 (stereo partly drawn) . Could you help? 10 to 30 nM

* * *

biological target: binding between Nrf2 and Keap1 (Homo sapiens (Human)); experiment: FP assay (in vitro): inhibition of Nrf2-Keap1 binding by fluorescence polarization; conditions: GST-fused human Keap1 (325-642) 20 nM, FITC-labeled Nrf2 peptide 10 nM, 2 hr at room temperature
Sequence (Q14145 325-624 limits assumed): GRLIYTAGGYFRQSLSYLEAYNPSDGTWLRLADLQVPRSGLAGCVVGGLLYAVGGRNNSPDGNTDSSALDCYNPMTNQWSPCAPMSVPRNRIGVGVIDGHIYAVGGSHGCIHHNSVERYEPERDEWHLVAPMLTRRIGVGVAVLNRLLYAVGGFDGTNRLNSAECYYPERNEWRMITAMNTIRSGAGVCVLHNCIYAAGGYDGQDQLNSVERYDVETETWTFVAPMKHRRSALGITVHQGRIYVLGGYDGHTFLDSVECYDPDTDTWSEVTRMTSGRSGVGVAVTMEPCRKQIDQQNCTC
result.type: IC50

- molecule: "CC[C@@H]1CN(Cc2cc(C(CC(=O)O)c3cc(OC(F)(F)F)c4c(nnn4C)c3C)cc3ccsc23)S(=O)(=O)c2cc(Cl)cnc2O1 (some centres unmarked) [Example 54]"
  result.type: "IC50"
  result: "10 to 30 nM"
- molecule: "CC[C@@H]1CN(Cc2cc(C(CC(=O)O)c3cc(Cl)c4c(nnn4C)c3C)cc3c2CCC3)[C@@H](C)c2ncccc2O1 (single isomer, unassigned) [Example 71]"
  result.type: "IC50"
  result: "≤ 10 nM"
- molecule: "CC[C@@H]1Cc2ncccc2S(=O)(=O)N(Cc2cc([C@@H](CC(=O)O)c3ccc4c(nnn4C)c3C)cc3c2CCC3)C1 (single isomer, unassigned) [Example 27]"
  result.type: "IC50"
  result: "≤ 10 nM"
- molecule: "CC[C@@H]1CN(Cc2cc([C@@H](CC(=O)O)c3cc(Cl)c4c(nnn4C)c3C)cc3ccsc23)S(=O)(=O)c2cc(Cl)cnc2O1 [Example 31]"
  result.type: "IC50"
  result: "≤ 10 nM"

Query (molecule): CC[C@@H]1CN(Cc2cc([C@@H](CC(=O)O)c3ccc4c(nnn4C)c3C)cc3ccsc23)[C@@H](C)c2ncccc2O1 [Example 63] ; field requested: IC50 10 to 30 nM

Data credit: patent US20250092064A1
